Test system: Escherichia coli TOP10;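 further: peptides expressed intracellularly from a pBAD plasmid library in pooled LB shake-flask culture, induced with 0.3% L-arabinose, DNA abundance read by NGS, three biological replicates, DESeq2 with apeglm shrinkage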
test_protocol: shrunken log2 fold change of peptide-encoding DNA abundance (4.5 h post-induction vs induction); higher = less antimicrobial activity (less host growth inhibition)
condition_label: time post-induction: 4.5 h; library: site-saturation at positions 5, 18, 19, 20
Classes (shrunken log2 fold change): zone 1 (below -0.2), zone 2 (-0.2 to below 0.2), zone 3 (0.2 or more)

-- ask Exam item: assign "RRIRHRPPRLPRPRPRPDWCPRP" to the correct category.
-- reply zone 2

-- ask Exam item: assign "RRIRHRPPRLPRPRPRPANTPRP" to the correct category.
-- reply zone 2

-- ask Exam item: assign "RRIRGRPPRLPRPRPRPETGPRP" to the correct category.
-- reply zone 3

-- ask Exam item: assign "RRIRCRPPRLPRPRPRPPDLPRP" to the correct category.
-- reply zone 2

-- ask Exam item: assign "RRIRGRPPRLPRPRPRPKRDPRP" to the correct category.
-- reply zone 3

-- ask Exam item: assign "RRIRMRPPRLPRPRPRPGHSPRP" to the correct category.
-- reply zone 2

-- ask Exam item: assign "RRIRMRPPRLPRPRPRPPHRPRP" to the correct category.
-- reply zone 3

-- ask Exam item: assign "RRIRFRPPRLPRPRPRPIIYPRP" to the correct category.
-- reply zone 1

-- ask Exam item: assign "RRIRNRPPRLPRPRPRPICCPRP" to the correct category.
-- reply zone 2

-- ask Exam item: assign "RRIRYRPPRLPRPRPRPFGFPRP" to the correct category.
-- reply zone 1

-- ask Exam item: assign "RRIRARPPRLPRPRPRPIPQPRP" to the correct category.
-- reply zone 2

-- ask Exam item: assign "RRIRIRPPRLPRPRPRPCFPPRP" to the correct category.
-- reply zone 1

-- ask Exam item: assign "RRIRCRPPRLPRPRPRPGNHPRP" to the correct category.
-- reply zone 1

-- ask Exam item: assign "RRIRPRPPRLPRPRPRPCRNPRP" to the correct category.
-- reply zone 2

-- ask Exam item: assign "RRIRGRPPRLPRPRPRPVKDPRP" to the correct category.
-- reply zone 3

-- ask Exam item: assign "RRIRKRPPRLPRPRPRPLGWPRP" to the correct category.
-- reply zone 3

-- ask Exam item: assign "RRIRIRPPRLPRPRPRPHDEPRP" to the correct category.
-- reply zone 1

-- ask Exam item: assign "RRIRIRPPRLPRPRPRPFTNPRP" to the correct category.
-- reply zone 2

-- ask Exam item: assign "RRIRVRPPRLPRPRPRPFNYPRP" to the correct category.
-- reply zone 1

-- ask Exam item: assign "RRIRERPPRLPRPRPRPTNNPRP" to the correct category.
-- reply zone 1

-- ask Exam item: assign "RRIRLRPPRLPRPRPRPAYYPRP" to the correct category.
-- reply zone 1

-- ask Exam item: assign "RRIRPRPPRLPRPRPRPTQPPRP" to the correct category.
-- reply zone 3

-- ask Exam item: assign "RRIRARPPRLPRPRPRPQPCPRP" to the correct category.
-- reply zone 3

-- ask Exam item: assign "RRIRQRPPRLPRPRPRPVIFPRP" to the correct category.
-- reply zone 2

-- ask Exam item: assign "RRIRWRPPRLPRPRPRPRNCPRP" to the correct category.
-- reply zone 2

-- ask Exam item: assign "RRIRTRPPRLPRPRPRPNVRPRP" to the correct category.
-- reply zone 2

-- ask Exam item: assign "RRIRTRPPRLPRPRPRPDFGPRP" to the correct category.
-- reply zone 2

-- ask Exam item: assign "RRIRARPPRLPRPRPRPCTTPRP" to the correct category.
-- reply zone 2

-- ask Exam item: assign "RRIRGRPPRLPRPRPRPDFIPRP" to the correct category.
-- reply zone 2

-- ask Exam item: assign "RRIRSRPPRLPRPRPRPISQPRP" to the correct category.
-- reply zone 1

-- ask Exam item: assign "RRIRDRPPRLPRPRPRPAVFPRP" to the correct category.
-- reply zone 2

-- ask Exam item: assign "RRIRSRPPRLPRPRPRPMPCPRP" to the correct category.
-- reply zone 3

-- ask Exam item: assign "RRIRNRPPRLPRPRPRPQYKPRP" to the correct category.
-- reply zone 1
